Assay: Chemical stability of the compound in borate buffered saline assessed as half life of cyclization at pH 6.2
Format: physicochemical
measurementName: half-life (min)
Answer format: numeric, min implied, no suffix.

Challenge: Item Cc1ccc(-c2cc(C(F)(F)F)nn2-c2ccc(S(=O)(=O)NC(=O)CCc3ccccc3N)cc2)cc1 has what recorded half-life?
Response given: 29.5

====

Experiment: Chemical stability of the compound in borate buffered saline assessed as half life of cyclization at pH 6.28
Assay type: physicochemical
measurementName: half-life (min)
Answer format: numeric, min implied, no suffix.

Challenge: Item Cc1ccc(-c2cc(C(F)(F)F)nn2-c2ccc(S(=O)(=O)NC(=O)CCc3ccccc3N)cc2)cc1 has what recorded half-life?
Response given: 41.2

====

Assay: Chemical stability of the compound in borate buffered saline assessed as half life of cyclization at pH 7.4
Assay type: physicochemical
measurementName: half-life (h)
Answer format: numeric, h implied, no suffix.

Challenge: Item Cc1ccc(-c2cc(C(F)(F)F)nn2-c2ccc(S(=O)(=O)NC(=O)CCc3ccccc3N)cc2)cc1 has what recorded half-life?
Response given: 10.5

====

Test: Secretory transport of the compound through transepithelial human Caco2 model
Format: ADME, cell-based
Details: Caco-2
measurementName: Papp B→A (×10⁻⁶ cm/s)
Answer format: numeric, ×10⁻⁶ cm/s implied, no suffix.

Challenge: Item Cc1ccc(-c2cc(C(F)(F)F)nn2-c2ccc(S(N)(=O)=O)cc2)cc1 has what recorded Papp B→A?
Response given: 12.4

====

Assay: Chemical stability of the compound in borate buffered saline assessed as half life of cyclization at pH 7
Type: physicochemical
measurementName: half-life (h)
Answer format: numeric, h implied, no suffix.

Challenge: Item Cc1ccc(-c2cc(C(F)(F)F)nn2-c2ccc(S(=O)(=O)NC(=O)CCc3ccccc3N)cc2)cc1 has what recorded half-life?
Response given: 2.17
